Tested on: HCC-44
Test: relative viability (nuclei count vs DMSO), 5 days (fraction); higher = more cells survive
Conditions: first compound 0.005 µM
Quantity kind: relative viability
Response field accepts a number only; no unit should be typed.

Please fill in: relative viability reported for Nc1ccn([C@@H]2O[C@H](CO)[C@@H](O)[C@@H]2O)c(=O)n1 [Cytarabine] + CCNC(=O)c1noc(-c2cc(C(C)C)c(O)cc2O)c1-c1ccc(CN2CCOCC2)cc1 [Luminespib] (partner 0.01 µM) = 0.949

Please fill in: relative viability reported for COc1cc2nccc(Oc3ccc(NC(=O)Nc4cc(C)on4)c(Cl)c3)c2cc1OC [Tivozanib] + CS(=O)(=O)N1CCN(Cc2cc3nc(-c4cccc5[nH]ncc45)nc(N4CCOCC4)c3s2)CC1 [Pictilisib] (partner 1 µM) = 0.617

Please fill in: relative viability reported for COc1cc2nccc(Oc3ccc(NC(=O)Nc4cc(C)on4)c(Cl)c3)c2cc1OC [Tivozanib] + C[C@]1(O)C[C@@H](c2nc(-c3ccc4ccc(-c5ccccc5)nc4c3)c3c(N)nccn32)C1 [Linsitinib] (partner 1 µM) = 0.66

Please fill in: relative viability reported for Nc1ccn([C@@H]2O[C@H](CO)[C@@H](O)[C@@H]2O)c(=O)n1 [Cytarabine] + CC(=O)c1c(C)c2cnc(Nc3ccc(N4CCNCC4)cn3)nc2n(C2CCCC2)c1=O [Palbociclib] (partner 0.5 µM) = 0.997

Please fill in: relative viability reported for Nc1ccn([C@@H]2O[C@H](CO)[C@@H](O)[C@@H]2O)c(=O)n1 [Cytarabine] + CS(=O)(=O)N1CCN(Cc2cc3nc(-c4cccc5[nH]ncc45)nc(N4CCOCC4)c3s2)CC1 [Pictilisib] (partner 1 µM) = 0.492

Origin of measurements: the supplement of paper PMC10307832
